Ba/F3 FLT3-ITD Selectivity on parental generation reference
# Test system: Ba/F3 FLT3-ITD cells
# assay overview: Cytotoxicity assay (CellTiter-Glo), Ba/F3 FLT3-ITD
# Format: cell-based
# experimental parameters: ratio of Ba/F3 parental IC50 to Ba/F3 FLT3-ITD IC50
# answer = number (no unit)

CC(C)n1cc(-c2ccc(CC(=O)Nc3cc(C(C)(C)C(F)(F)F)on3)cc2)c2c(N)ncnc21 :: 7244.4

Query CC(C)n1nc(-c2ccc(CC(=O)Nc3cc(C(C)(C)C(F)(F)F)no3)cc2)c2c(N)ncnc21 yields Ba/F3 FLT3-ITD Selectivity on parental generation of 14708

// recorded Ba/F3 FLT3-ITD Selectivity on parental generation for CC(C)n1nc(-c2ccc(CC(=O)Nc3cc(C(C)(C)C(F)(F)F)no3)cn2)c2c(N)ncnc21 : 750.1

Input CC(C)c1nc(-c2ccc(CC(=O)Nc3cc(C(C)(C)C(F)(F)F)on3)cc2)c2c(N)ncnn12 . Output Ba/F3 FLT3-ITD Selectivity on parental generation: 7006.3

The compound listed as CC(C)n1nc(-c2ccc(CC(=O)Nc3cc(C(C)(C)C(F)(F)F)on3)cn2)c2c(N)ncnc21 has a reported Ba/F3 FLT3-ITD Selectivity on parental generation of 3280.6

Value of Ba/F3 FLT3-ITD Selectivity on parental generation reported for the compound [2H]C([2H])([2H])C(n1nc(-c2ccc(CC(=O)Nc3cc(C(C)(C)C(F)(F)F)no3)cc2)c2c(N)ncnc21)C([2H])([2H])[2H] is 7543.8
